Recorded values, source ChEMBL document CHEMBL1201862.

# TESTED TARGET: Leucine aminopeptidase (Plasmodium falciparum 3D7)
# Sequence (Q8IL11 whole entry): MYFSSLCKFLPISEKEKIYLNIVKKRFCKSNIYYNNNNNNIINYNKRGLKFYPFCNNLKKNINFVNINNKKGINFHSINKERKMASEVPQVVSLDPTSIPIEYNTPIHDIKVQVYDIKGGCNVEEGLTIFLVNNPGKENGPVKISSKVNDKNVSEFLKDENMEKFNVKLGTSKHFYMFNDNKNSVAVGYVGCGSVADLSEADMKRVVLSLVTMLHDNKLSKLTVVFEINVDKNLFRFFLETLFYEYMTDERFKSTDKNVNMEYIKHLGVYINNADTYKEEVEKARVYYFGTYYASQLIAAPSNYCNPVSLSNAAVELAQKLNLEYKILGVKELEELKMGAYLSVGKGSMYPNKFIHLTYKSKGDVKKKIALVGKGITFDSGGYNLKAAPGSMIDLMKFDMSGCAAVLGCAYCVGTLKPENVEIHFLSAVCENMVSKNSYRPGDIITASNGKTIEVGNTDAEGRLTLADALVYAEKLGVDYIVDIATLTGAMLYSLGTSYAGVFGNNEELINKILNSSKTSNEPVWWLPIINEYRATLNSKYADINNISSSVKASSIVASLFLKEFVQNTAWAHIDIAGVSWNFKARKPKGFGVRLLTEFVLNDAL
# TEST METHOD NOTES: P. falciparum M17LAP inhibitors, primary screen, biochemical, fluorogenic H-Leu-NHMec substrate, 1536-well (AID 1619)
# Assay type: functional
Calls of active or inactive are those of the source.
READOUT LABEL: IC50

>>> observed_measurement("C=CCn1c(=S)[nH]c2sc3c(c2c1=O)CCC3")
"46.2 µM (active)"
>>> observed_measurement("COc1cc(NC(=O)CSc2nc3cc(C)ccc3cc2C)c(C(=O)O)cc1OC")
"1.93 µM (active)"
>>> observed_measurement("CCc1cc2cc3c(cc2nc1SCC(=O)Nc1cc(OC)c(OC)cc1C(=O)O)OCO3")
"< 1 µM (active)"
>>> observed_measurement("Cc1c(O)n(-c2ccc(F)cc2)c(SCC(=O)Nc2ccc3c4c(cccc24)CC3)nc1=O")
"6.36 µM (active)"
>>> observed_measurement("O=C(CSc1ncccc1C(=O)O)NCCC1=CCCCC1")
"29.2 µM (active)"
>>> observed_measurement("Cc1cccc(C)c1Nc1nnc(SC(C)C(=O)Nc2c(C)n(C)n(-c3ccccc3)c2=O)s1 (stereo unspecified)")
"13.5 µM (active)"
>>> observed_measurement("N#CC1=C(N)Oc2[nH]nc(-c3ccc(F)cc3)c2C1c1cccnc1 (stereo unspecified)")
"61.2 µM (active)"
>>> observed_measurement("CC1SCC(=O)N(CC(=O)Nc2ccc3c(c2)OCO3)C1=O (stereo unspecified)")
"29.4 µM (active)"
>>> observed_measurement("O=C(O)c1cccc(CN2C(=O)SC(Nc3ccccc3)C2=O)c1 (stereo unspecified)")
"34.3 µM (active)"
>>> observed_measurement("CC1CCN(CC(=O)Nc2ccc(N3CCCCCC3)cc2)CC1")
"13 µM (active)"

Consider the record given below.
According to the records, this molecule c1ccc(-c2nnc(Sc3ncnc4c3cnn4-c3ccccc3)[nH]2)cc1 displays IC50 of 64.8 µM (active)

* * *

# TESTED TARGET: Cytochrome P450 3A4 (Homo sapiens, UniProt P08684);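 also: confirmatory qHTS run detecting inhibitors and substrates of CYP3A4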
# Sequence (P08684 whole entry): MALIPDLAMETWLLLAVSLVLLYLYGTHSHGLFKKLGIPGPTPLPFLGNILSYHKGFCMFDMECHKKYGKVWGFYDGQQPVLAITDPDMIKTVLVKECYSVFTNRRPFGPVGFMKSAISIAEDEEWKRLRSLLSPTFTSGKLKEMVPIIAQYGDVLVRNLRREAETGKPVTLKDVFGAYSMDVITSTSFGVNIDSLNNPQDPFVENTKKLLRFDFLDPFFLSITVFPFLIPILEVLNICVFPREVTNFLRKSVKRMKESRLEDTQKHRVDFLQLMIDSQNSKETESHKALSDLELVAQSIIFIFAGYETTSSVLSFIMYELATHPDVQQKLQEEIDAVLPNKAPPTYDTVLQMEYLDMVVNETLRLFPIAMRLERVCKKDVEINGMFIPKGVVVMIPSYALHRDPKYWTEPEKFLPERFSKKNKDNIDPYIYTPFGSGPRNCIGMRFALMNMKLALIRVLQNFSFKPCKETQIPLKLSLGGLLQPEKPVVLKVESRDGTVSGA
# EXPERIMENTAL CONTEXT: Potency
READOUT LABEL: AC50

Below is a list of compounds. For each, state its recorded AC50.
1. Nc1ccc(-c2ccc(N)c(O)c2)cc1O
2. COC(=O)c1ccc(CN2[C@@H]3C[C@@H](O)CC[C@@H]3C[C@H]2C(=O)OC)cc1

Result string:
1. 31.6 µM (inconclusive)
2. 15.8 µM (inconclusive)

* * *

# TEST METHOD NOTES: Luminescence Cell-Based Dose Retest to Confirm Inhibitors of Cancer Stem Cells. [Related pubchem assays (depositor defined):AID2717, AID2721]
# Format: functional
# EXPERIMENTAL CONTEXT: Homo sapiens
The source made the active and inactive calls.
Outcomes you can answer with include only these: T for active, F for inactive

// below: answered compounds
>>> assigned_label("CCOC(=O)C1CCN(c2ncnc3c2c(-c2ccccc2)cn3-c2ccccc2)CC1")
"T"
>>> assigned_label("COc1ccc(CN2C(=O)c3cccnc3C2Nc2cc(Cl)ccc2OC)cc1 (stereo unspecified)")
"F"
>>> assigned_label("COc1ccc(C(=O)Nc2cccc(/C=C/c3nc(O)c4ccccc4n3)c2)cc1")
"T"
>>> assigned_label("COc1ccc2nc(NC(=O)c3ccc([N+](=O)[O-])o3)sc2c1")
"T"
>>> assigned_label("CCOC(=O)c1c(NC(NC(=O)C(C)C)C(Cl)(Cl)Cl)sc2c1CCC2 (stereo unspecified)")
"T"

// next entry
Query string: // outcome(item) with item = CCOc1cc(CNCCO)cc(Br)c1OCc1ccc(Cl)cc1Cl
Result string: T
